The measured values listed here are drawn from patent US20260174875A1.

Each entry below lists one item and its recorded hAMYR3 Potency, no HSA, EC50 [pM] value.
# system_tested: T1, human amylin-3(a) receptor (human, UniProt P30988 25-474; O60896 24-148)
# T1 sequence (looked up) 1: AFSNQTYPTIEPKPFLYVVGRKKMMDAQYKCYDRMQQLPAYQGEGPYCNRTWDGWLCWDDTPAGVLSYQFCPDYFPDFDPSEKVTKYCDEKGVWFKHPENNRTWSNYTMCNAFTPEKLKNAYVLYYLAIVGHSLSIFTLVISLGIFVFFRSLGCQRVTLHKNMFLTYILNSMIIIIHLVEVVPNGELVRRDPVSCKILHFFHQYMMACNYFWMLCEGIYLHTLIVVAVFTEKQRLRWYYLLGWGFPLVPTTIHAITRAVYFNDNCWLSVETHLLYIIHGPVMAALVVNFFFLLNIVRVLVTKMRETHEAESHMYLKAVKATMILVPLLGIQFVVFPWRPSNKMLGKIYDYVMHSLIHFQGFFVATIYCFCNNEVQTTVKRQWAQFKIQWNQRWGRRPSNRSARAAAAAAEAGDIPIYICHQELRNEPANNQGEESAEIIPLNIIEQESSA
# T1 sequence (looked up) 2: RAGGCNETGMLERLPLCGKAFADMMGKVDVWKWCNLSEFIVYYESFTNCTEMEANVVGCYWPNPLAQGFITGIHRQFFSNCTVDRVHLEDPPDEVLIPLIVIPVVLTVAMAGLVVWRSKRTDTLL
# assay_procedure: cell-based or functional assay
Numbered stars: 1 amine (or outer) side, 2 acyl side, 3 side chain; on linkers, the order of the positions; unused ones are H or OH. Square brackets hold non-standard residues; d marks the D form. Side chains are listed from the residue outwards. * marks the point of attachment. C18 diacid = O=C(O)CCCCCCCCCCCCCCCCC(=O)*; γGlu = O=C(O)[C@H](CCC(=O)[*:2])N[*:1]; Chem. 29 = not defined here; AEEA = NCCOCCOCC(=O)O; Aib = CC(C)(N)C(=O)O
Provide only the numeric value, understood in pM.

binder: Compound 85 (peptide) peptide: H[Aib]HGTFTSDYSILLEEQAAREFIEWLLAGGPSSGEASHLSTAQTQRLSAELHK([AEEA-AEEA-γGlu-C18 diacid])LATLPRTETGSGAP-NH2
measured_quantity: hAMYR3 Potency, no HSA, EC50 [pM]
endpoint_value: 4.4

We next turn to a different binder, shown below.
Determine from records and report hAMYR3 Potency, no HSA, EC50 [pM] for Compound 20 (reading uncertain) peptide: Y[Aib]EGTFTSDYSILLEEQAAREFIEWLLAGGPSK(Chem. 29)GASELSTAALGRLSAELHRLATLPRTETGSGSP-NH2 3.65
